Every entry's value here was drawn from the supplement of paper PMC10126150.

test system: ATP; experiment: switch fluorescence ratio, 500 uM ATP over buffer (Cy3 cluster intensity, sum of 5 cycles each) (fold (ratio)); higher = stronger signal-on switching upon ATP binding; sequences stand for … in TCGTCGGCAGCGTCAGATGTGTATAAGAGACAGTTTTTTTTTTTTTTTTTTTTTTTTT…TC; conditions: aptamer strand: ATP DNA aptamer (quencher-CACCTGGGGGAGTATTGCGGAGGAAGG + anchor), 100 nM annealed; ATP concentration: 500 uM;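 note: ATP exposure 15 min at 22 °C before imaging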
Property: switch fluorescence ratio; scope: individual sequences
readout-kind: switch fluorescence ratio

1) GGATGGGGCA; 1
2) ACAAGGTGAC; 1.08
3) GTACTGTGTG; 1
4) ATAGTGACGT; 0.983
5) TATATGATGG; 0.982
6) CATAGCGATA; 3.48
7) TTTTGTTGGG; 0.991
8) TGGTTAATGG; 0.989
9) GCTGGACGTG; 0.991
10) GCGAGTGTGA; 1
11) TTGTTTTCGC; 1.04
12) ATTAGGAGAT; 0.996
13) TTTAGAGAGT; 1.01
14) ATATTCTACT; 1.02
15) ATGAGTAGGA; 1.02
16) CAGCTCAGCC; 1
17) TTTGTAATTG; 1.01
18) GTGAGGCCCC; 1
19) GGGATTTAGG; 0.997
20) GTGATGGGGT; 1.01
21) ACACGAGGCT; 1.04
22) GACAGACGGG; 1.13
23) TATTTAGGGG; 0.973
24) AAGGTTGCGG; 1
25) GGTTAGGAGT; 0.99
26) GGGGCTTCTA; 0.957
27) ATTAAATAAC; 1.02
28) GAAGCAACCG; 1.38
29) GGGGCGCGGT; 1.02
30) TAGATATTTT; 0.986
31) TTTAGATGAG; 0.986
32) TAGAAGGGGG; 0.965
33) GAGATACTCT; 1.03
34) GATACCGTGC; 1.18
35) AAATTAAGGG; 1.02
36) CTTCGGTAAC; 2.17
37) GTTCTTGGTG; 1.01
38) GTGGCTAACT; 1.04
39) ATTTGCTATT; 1
40) TTTTGTTTTA; 1
41) TTAAATAGGT; 0.996
42) GGACAGGGGT; 1.03
43) TAGACTTATG; 1.04

----------
tested on: ATP; test: switch fluorescence ratio, 500 uM ATP over buffer (Cy3 cluster intensity, sum of 5 cycles each) (fold (ratio)); higher = stronger signal-on switching upon ATP binding; sequences stand for … in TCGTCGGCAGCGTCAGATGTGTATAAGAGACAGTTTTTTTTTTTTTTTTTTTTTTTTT…TC; settings: aptamer strand: ATP DNA aptamer (quencher-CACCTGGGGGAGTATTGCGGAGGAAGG + anchor), 100 nM annealed; ATP concentration: 500 uM;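 note: ATP exposure 15 min at 22 °C before imaging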
Property: switch fluorescence ratio; scope: individual sequences
readout-kind: switch fluorescence ratio

1) TAACGGGATG; 1
2) GGTTTATTTG; 1.01
3) CAGTGTTAGG; 1
4) ACGTCGATGG; 0.995
5) CTGTCAACGG; 1.02
6) AAAGGCGTAT; 1.01
7) GACTACGGCC; 1.05
8) GAACAATGGG; 0.977
9) TTTTGGGGAT; 1.01
10) TGTTAAGGGA; 1
11) AGTTTTGGTA; 1.02
12) GTCGCAAGTT; 1.01
13) AAAGCGGGGG; 1.04
14) ACATCGACTG; 1.02
15) ACTCCATGCG; 1.15
16) AAGGCGCGGC; 0.969
17) TATTGATGGT; 0.994
18) GCCTGCTTGC; 1.03
19) TTTGTATTGC; 1.01
20) TATGGAGGCT; 1.07
21) ATGGGTCTGC; 1.16
22) CGTTCTTGTT; 0.976
23) TCTATTATTG; 0.98
24) TAAAGCTTAA; 1.05
25) ACAGGATCCG; 1.01
26) CGTGCAGTTC; 1.15
27) GACTTCCAGG; 1.05
28) GGGGTTACGG; 0.996
29) GCGAAAAAGG; 0.997
30) AGGGAGGAGC; 0.923
31) GATAGGTTGG; 0.985
32) CGGTTCGTTA; 0.979
33) CGATATCCAC; 1.07
34) AAGCCTGGTG; 1.6
35) GTTCACCAAT; 1
36) GAGACTGGTT; 1.03
37) AGGGGTAAAG; 0.955
38) ATAACGTCGG; 0.987
39) ATACGGGGGT; 1.01
40) GCGTATAGGA; 1.01
41) TTACCGGACT; 1.11
42) AGGGCCGGCG; 1
43) ATTATTAATT; 0.973

----------
system: ATP; test: switch fluorescence ratio, 500 uM ATP over buffer (Cy3 cluster intensity, sum of 5 cycles each) (fold (ratio)); higher = stronger signal-on switching upon ATP binding; sequences stand for … in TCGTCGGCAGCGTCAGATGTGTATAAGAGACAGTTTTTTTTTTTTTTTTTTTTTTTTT…TC; conditions: aptamer strand: ATP DNA aptamer (quencher-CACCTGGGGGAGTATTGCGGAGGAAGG + anchor), 100 nM annealed; ATP concentration: 500 uM;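 note: ATP exposure 15 min at 22 °C before imaging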
Property: switch fluorescence ratio; scope: individual sequences
readout-kind: switch fluorescence ratio

1) GGGTTGATGC; 1.02
2) TATAGTGGGA; 1
3) AGGATTTACT; 1.01
4) TTGGTCGCGG; 0.971
5) AGAAGGGTGT; 1.02
6) GATTGGAGGG; 0.997
7) TAATTTAGTG; 0.986
8) CGTTTGTTTG; 0.988
9) CATTTTGGTC; 1
10) GGACGCTATC; 3.89
11) ATATGGGCTT; 0.986
12) ATGGTCGGAT; 0.98
13) TTAGTTATTC; 1.02
14) CATGGGATGG; 1.01
15) GGGATATTTG; 0.999
16) TACTGACGAA; 1.27
17) GGGCCTAGCG; 0.978
18) TGGAATATTC; 1.04
19) TTTACTATTG; 1.03
20) TCCTTTTTTG; 1

----------
test system: ATP; assay: switch fluorescence ratio, 500 uM ATP over buffer (Cy3 cluster intensity, sum of 5 cycles each) (fold (ratio)); higher = stronger signal-on switching upon ATP binding; sequences stand for … in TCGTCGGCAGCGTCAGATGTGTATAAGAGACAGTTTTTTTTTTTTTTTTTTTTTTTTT…TC; settings: aptamer strand: ATP DNA aptamer (quencher-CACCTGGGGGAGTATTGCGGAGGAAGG + anchor), 100 nM annealed; ATP concentration: 500 uM;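 note: ATP exposure 15 min at 22 °C before imaging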
readout-kind: switch fluorescence ratio

1. GTGTTTAACC; 0.984
2. CATAAGATCC; 0.994
3. CGTTTAAGGG; 0.982
4. TAGGGAAACT; 1.21
5. CATCGGCGAT; 1.56
6. GAAGGTGCGA; 1.15
7. TTAACTGGGG; 1.11
8. ATTTATGTTT; 0.979
9. CCACTCCGGG; 1.19
10. TGGGGGGAGC; 1
11. GAGGGTGGGG; 1.01
12. TATCGAAGTG; 0.993
13. TTAGTGATCT; 0.998
14. CTGAAGGGAC; 1.15
15. TGTGTGATAC; 1.55
16. AAGCGGCGTA; 1.01
17. TACGGTGTGG; 0.989
18. GCTGGGGACT; 0.996
19. ACAGAATCGG; 1.03
20. TAAATGTCTG; 0.995
21. GTTCACCGGG; 1.14
22. GTGGGGAGCG; 0.994
23. GACAGTCTCA; 1.02
24. GGGTGCGTTG; 1.04
25. TTATGGGACA; 1.03
26. TAGTCGTCGT; 1.02
27. AAGTGGGGGA; 1.02
28. GAGAAAACCG; 1.06
29. AGGGCAGTAT; 1.06
30. GGGGGTGGTC; 1.01
31. AGAAAGAAAA; 0.993
32. CTCCTCAGTG; 2.26
33. ATTGTGGTCC; 1.01
34. TACAGCGGAG; 0.999
35. ATAGGCCGTA; 1.03
36. GGGGAACAGA; 1.02
37. GGGGGGGCTC; 0.965
38. TTAAACGTGT; 1.04
39. TGTTATCGTT; 0.989
40. CTTAGTTAGC; 1.02
41. GCTGTGGGCA; 0.977
42. GGGGGCTGGT; 1
43. GGGGGGGTTG; 1.01
